Ref: patent US12606518B2

# test: Pharmacokinetic comparison after single oral administration
# particulars: mouse, blood, po, 400 mg/kg, Cmax, mice, 400 mg/kg oral once, n=5, after baseline correction

structure: N[C@@H](CO)C(=O)O
Cmax, µg/mL: 67.5

---

# test: Pharmacokinetic comparison after single oral administration
# particulars: mouse, blood, po, 400 mg/kg, t1/2, mice, 400 mg/kg oral once, n=5, after baseline correction
assay_metric: half-life

structure: N[C@@H](CO)C(=O)O
assay_metric: half-life
experimental_value: 4.15 h

---

# test: Pharmacokinetic comparison after single oral administration
# particulars: mouse, blood, po, 400 mg/kg, Tmax, mice, 400 mg/kg oral once, n=5, after baseline correction

molecule: N[C@@H](CO)C(=O)O [Comparative Example 1, L-serine]
Tmax (min): 15
